Hello, the source for this data is ChEMBL document CHEMBL5338709, in case you need it.

protocol details: AUC (0 to 24 hrs) in ICR mouse at 10 mg/kg, po
Assay type: ADME, organism-based
Set-up: dose 10 mg/kg, route po
assay conditions: in vivo
measure name: AUC(0-t) (ng·h/mL)
// note: answer is a bare numeric in ng·h/mL

Consider `O=C(NC1CCOCC1)c1csc([C@@H]2C[C@H]2NCC2CC2)c1` . Its measured AUC(0-t) is 1050

* * *

protocol details: Metabolic stability in mouse liver microsomes assessed as clearance at 1 uM incubated for 15 to 30 mins in presence of NADPH generating system by LC-MS/MS analysis
Type: ADME, Microsome
assay conditions: time 15-30 min, read-out: CLH
measure name: microsomal CLint at 1 µM (µL/min/mg)
Just the number in µL/min/mg, nothing appended.

Example entries begin here.
compound | unit symbol | microsomal CLint at 1 µM
Cc1nnc(NC(=O)c2cc([C@@H]3C[C@H]3NCC3CC3)cs2)s1 (racemic) | µL/min/mg | 15
Cc1nnc(NC(=O)c2cccc([C@@H]3C[C@H]3NCC3CC3)c2)s1 (racemic) | µL/min/mg | 10
O=C(Nc1cccnc1)c1cccc([C@@H]2C[C@H]2NCC2CC2)c1 (racemic) | µL/min/mg | 47
O=C(Nc1ccccc1)c1cccc([C@@H]2C[C@H]2NCC2CC2)c1 (racemic) | µL/min/mg | 101

Reported microsomal CLint at 1 µM for O=C(NC1CCC(F)(F)CC1)c1cccc([C@@H]2C[C@H]2NCC2CC2)c1 (racemic) was 26

Short answer for O=C(NC1CCOCC1)c1csc([C@@H]2C[C@H]2NCC2CC2)c1 (racemic) : microsomal CLint at 1 µM was 13

Form: compound = Cc1nnc(NC(=O)c2csc([C@@H]3C[C@H]3NCC3CC3)c2)s1 (racemic) ; microsomal CLint at 1 µM = 26

microsomal CLint at 1 µM in this record for O=C(NC1CCOCC1)c1cccc([C@@H]2C[C@H]2NCC2CC2)c1 (racemic) : 11

* * *

Tested on: GFI1 mRNA
protocol details: Hematological toxicity in human TF-1a cells assessed as fold increase in GFI1 mRNA expression at 10 uM incubated for 1 day by RT-qPCR analysis relative to control
Format: cell-based
assay conditions: read-out: FC
Measured fold induction at 24 h, 10 µM by item
Respond numerically, and do not add a unit to the figure.

Previously resolved entries follow.
compound | study target | fold induction at 24 h, 10 µM
CN(C(=O)c1cccc([C@@H]2C[C@H]2NCC2CC2)c1)c1ccccc1 (racemic) | GFI1 mRNA | 9.6
O=C(Nc1ccc([C@@H]2C[C@H]2NCC2CC2)cc1)c1ccccc1 (racemic) | GFI1 mRNA | 10.7
O=C(Nc1ccccc1)c1cccc([C@@H]2C[C@H]2NCC2CC2)c1 (racemic) | GFI1 mRNA | 1.97
O=C(Nc1cccnc1)c1cccc([C@@H]2C[C@H]2NCC2CC2)c1 (racemic) | GFI1 mRNA | 1.53
O=C(Nc1cccc([C@@H]2C[C@H]2NCC2CC2)c1)c1ccccc1 (racemic) | GFI1 mRNA | 3.51

Proceeding to the next compound to report its fold induction at 24 h, 10 µM.
The measured fold induction at 24 h, 10 µM associated with O=C(Nc1ccccc1)c1ccc([C@@H]2C[C@H]2NCC2CC2)cc1 (racemic) reads 10.6

* * *

study target: LSD1/CoREST complex (Homo sapiens, UniProt O60341)
protocol details: Inhibition of recombinant human LSD1 (172 to 852 residues)/His-tagged human CoREST (286 to 482 residues) expressed in Escherichia coli BL21 (DE3) cells using ART(mK)QTARKSTGGKAPRKQLAGGK-Biotin as substrate assessed as increase in H3K4 methylation incubated for 40 mins
measure name: pIC50
Worth noting: pIC50 values are minus log10 of concentrations stated in mol/L.

Previously resolved entries follow.
compound | study target | pIC50
O=C(Nc1ccccc1)c1cccc([C@@H]2C[C@H]2NCC2CC2)c1 (racemic) | LSD1/CoREST complex (Homo sapiens, UniProt O60341) | 7.09
O=C(Nc1cccnc1)c1cccc([C@@H]2C[C@H]2NCC2CC2)c1 (racemic) | LSD1/CoREST complex (Homo sapiens, UniProt O60341) | 6.80

So, CN(C(=O)c1cccc([C@@H]2C[C@H]2NCC2CC2)c1)c1ccccc1 (racemic) ? Its pIC50 was 6.07

Entry O=C(Nc1cccc([C@@H]2C[C@H]2NCC2CC2)c1)c1ccccc1 (racemic) — recorded pIC50 = 5.74
